System: Brachyury (BRA) Protein Expression, Deisenroth Lab, TBXT (gene 6862)
Test: CCTE_Deisenroth_DEVTOX-GLR_legacy_Bra: (Legacy) CCTE's DevTox GLR-Endo Assay Evaluation of Brachyury (BRA) Protein Expression, Deisenroth Lab (AID 2284329)
Protocol: CCTE_Deisenroth_DEVTOX-GLR_legacy assay is a cell-based, multiplex-readout assay that uses RUES2-GLR, a human pluripotent cell line, with measurements taken at 48 hours after chemical dosing in a 384-well microplateCCTE_Deisenroth_DEVTOX-GLR_legacy_Bra is one of 4 assay components calculated from the CCTE_Deisenroth_DEVTOX-GLR_legacy assay that measures an increase in the percentage of cells in an endoderm state. […]
The source made the active and inactive calls. The calls were made as follows: active = hit-call score of the fitted dose curve at least 0.9, where 1 is the maximum; inactive = score below 0.9.
Returns: one label drawn from true (1) (active), false (0) (inactive)

Worked examples, 8 molecules total:
> print(dat)
                            compound.string      group
1  COc1cc2c(Nc3ccc(Br)cc3F)ncnc2cc1OCC1CCN(C)CC1   true (1)
2  Cc1ccc(NC(=O)c2ccc(CN3CCN(C)CC3)cc2)cc1Nc1nccc(-c2cccnc2)n1   true (1)
3  CCN(CC)CCNC(=O)c1c(C)[nH]c(/C=C2\C(=O)Nc3ccc(F)cc32)c1C   true (1)
4  CNC(=O)c1cc(Oc2ccc(NC(=O)Nc3ccc(Cl)c(C(F)(F)F)c3)cc2)ccn1   true (1)
5     CCCCCN=C(N)N/N=C/c1c[nH]c2ccc(OC)cc12  false (0)
6  Cc1nc(Nc2ncc(C(=O)Nc3c(C)cccc3Cl)s2)cc(N2CCN(CCO)CC2)n1   true (1)
7  O=C(c1ccc(F)cc1)C1CCN(CCn2c(=O)[nH]c3ccccc3c2=O)CC1  false (0)
8  O=C1Cc2cc(CCN3CCN(c4nsc5ccccc45)CC3)c(Cl)cc2N1   true (1)

Please turn your attention to the following entry.
IN: Hi team, can someone confirm the assay call for "O=c1[nH]c(=O)n([C@H]2C[C@H](O)[C@@H](CO)O2)cc1Br" ?
OUT: true (1)

====

test: ATG_MRE_CIS: Attagene CIS-FACTORIAL HepG2 Assay for human Metal Responsive Element (MRE) (AID 2282954); settings: HepG2 MRE cis-reporter transcription, Attagene multiplex; actives raise or lower the signal
Calls of active or inactive are those of the source. The calls were made as follows: active = hit-call score of the fitted dose curve at least 0.9, where 1 is the maximum; inactive = score below 0.9.
// one of 1 = active, 0 = inactive, no free text

Reference set (5 entries):
> print(dat)
                                   compound  group
1                     CCC(=O)OCc1ccc(OC)cc1      0
2                                NCc1ccccc1      0
3                          OCCOCCOCCOCCOCCO      0
4  C=CC(C)(CCC=C(C)C)OC(=O)c1ccccc1 (centres undefined)      1
5                                 CCC(C)=NO      0

IN: For "C=C1CC[C@H]2C[C@@H]1C2(C)C" , which call appears in the assay record?
OUT: 0

IN: Called result for "CCCCNC(N)=O"
OUT: 0

IN: Test call, this compound: "CCCCOC(=O)COc1ccc(Cl)cc1Cl"
OUT: 0

IN: Hello, I am checking results. What call was entered for "CCO[Si](CCCN)(OCC)OCC" ?
OUT: 0

Cited source: PubChem BioAssay (EPA / NIEHS)
